Notes on AC50 obtained with 5-hydroxytryptamine receptor 6 (Homo sapiens, UniProt P50406).
Sequence (P50406 whole entry): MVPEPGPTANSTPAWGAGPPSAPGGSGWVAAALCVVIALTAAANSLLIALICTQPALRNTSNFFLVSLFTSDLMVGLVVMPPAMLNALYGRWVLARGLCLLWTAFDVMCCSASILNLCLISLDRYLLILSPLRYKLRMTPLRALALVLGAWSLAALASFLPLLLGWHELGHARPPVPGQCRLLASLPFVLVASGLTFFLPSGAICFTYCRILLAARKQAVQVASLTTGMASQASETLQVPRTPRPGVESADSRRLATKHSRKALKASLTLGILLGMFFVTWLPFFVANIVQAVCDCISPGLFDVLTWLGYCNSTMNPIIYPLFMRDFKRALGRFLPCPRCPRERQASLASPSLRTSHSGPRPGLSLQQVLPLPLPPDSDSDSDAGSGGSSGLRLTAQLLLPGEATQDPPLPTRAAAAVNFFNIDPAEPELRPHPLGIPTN

Please review the entries below; each comes with its answer.
INSERT INTO assay_data (compound, property_label, obs_value) VALUES
  ('NNC(=O)c1ccncc1', 'AC50', '> 10 µM'),
  ('Cc1nc(Nc2ncc(C(=O)Nc3c(C)cccc3Cl)s2)cc(N2CCN(CCO)CC2)n1', 'AC50', '> 10 µM'),
  ('C[C@@H]1C[C@H]2[C@@H]3C[C@H](F)C4=CC(=O)C=C[C@]4(C)[C@@]3(F)[C@@H](O)C[C@]2(C)[C@@]1(OC(=O)c1ccco1)C(=O)SCF [FLUTICASONE FUROATE]', 'AC50', '> 10 µM');

For the next question, use this compound.
Give a short answer stating reported AC50 for CCCc1nc2c(C)cc(-c3nc4ccccc4n3C)cc2n1Cc1ccc(-c2ccccc2C(=O)O)cc1 .
> 10 µM

###

Target: 5-hydroxytryptamine receptor 1A (Homo sapiens); also: assay procedure not described here
Sequence (P08908 whole entry): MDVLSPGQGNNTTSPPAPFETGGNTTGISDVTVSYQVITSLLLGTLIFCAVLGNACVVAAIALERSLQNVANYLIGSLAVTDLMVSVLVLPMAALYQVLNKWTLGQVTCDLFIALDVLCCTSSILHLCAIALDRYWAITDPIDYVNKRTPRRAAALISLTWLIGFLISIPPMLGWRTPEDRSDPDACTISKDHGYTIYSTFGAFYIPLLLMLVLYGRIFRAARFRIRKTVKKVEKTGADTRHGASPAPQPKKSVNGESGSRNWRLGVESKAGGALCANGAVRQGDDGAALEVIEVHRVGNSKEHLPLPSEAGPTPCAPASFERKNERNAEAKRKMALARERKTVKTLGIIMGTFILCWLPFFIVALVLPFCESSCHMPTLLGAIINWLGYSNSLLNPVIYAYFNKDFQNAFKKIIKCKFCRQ
Format: functional, cell-based
molecules and their reported AC50

Completed entries (count: 5):
INSERT INTO results (molecule, property_label, obs_value) VALUES
  ('COc1ccc2cc(CCC(C)=O)ccc2c1', 'AC50', '> 10 µM'),
  ('CC(=O)c1ccc(S(=O)(=O)NC(=O)NC2CCCCC2)cc1 [ACETOHEXAMIDE]', 'AC50', '> 10 µM'),
  ('S=P(N1CC1)(N1CC1)N1CC1', 'AC50', '> 10 µM'),
  ('Cc1ccc(C)c(OCCCC(C)(C)C(=O)O)c1', 'AC50', '> 10 µM'),
  ('COc1cc(C(=O)OCc2cccc(COC(=O)c3cc(OC)c(OC)c(OC)c3)n2)cc(OC)c1OC', 'AC50', '> 30 µM');

Answer with the recorded AC50 for the molecule listed here: O=C1Nc2ccc(Cl)cc2C(c2ccccc2Cl)=NC1O (stereo unspecified)
> 10 µM

Look up AC50 of CCc1nc(N)nc(N)c1-c1ccc(Cl)cc1 and report it.
> 10 µM

Return AC50 for the following molecule: CNC(=C[N+](=O)[O-])NCCSCc1csc(CN(C)C)n1
> 10 µM

Retrieve AC50 measured for C=CC[N+]1([C@H]2C[C@H]3[C@@H]4CC[C@H]5C[C@H](O)[C@@H](N6CCOCC6)C[C@]5(C)[C@H]4CC[C@]3(C)[C@H]2OC(C)=O)CCCC1 and print it.
> 30 µM

Specify measured AC50 for C=C1c2cccc(O)c2C(=O)C2=C(O)[C@]3(O)C(=O)C(C(N)=O)=C(O)[C@@H](N(C)C)[C@@H]3[C@@H](O)[C@H]12 .
> 10 µM

Item CO/N=C(\C(=O)N[C@@H]1C(=O)N2C(C(=O)O)=C(CSc3nc(=O)c(=O)[nH]n3C)CS[C@H]12)c1csc(N)n1 : provide AC50
> 30 µM

Specify reported AC50 for the molecule shown: Cc1ccccc1N1C(=O)c2cc(S(N)(=O)=O)c(Cl)cc2NC1C (stereo unspecified)
> 10 µM

Assign AC50 to the following record: CC(C)[C@H](N)C(=O)OCCOCn1cnc2c(=O)[nH]c(N)nc21
> 10 µM

Answer with the recorded AC50 for the molecule listed here: O=c1c(O)c(-c2ccc(O)c(O)c2)oc2cc(O)cc(O)c12
> 10 µM

Given CO[C@H]1C[C@H](O[C@H]2CC[C@@]3(C)[C@H](CC[C@@H]4[C@@H]3CC[C@]3(C)[C@@H](C5=CC(=O)OC5)[C@@H](OC(C)=O)C[C@]43O)C2)O[C@@H](C)[C@@H]1O , respond with its AC50.
> 30 µM

State, in one line, measured AC50 of COc1cc(N)c(Cl)cc1C(=O)NC1CCN(CCCOc2ccc(F)cc2)CC1OC (stereo unspecified) [CISAPRIDE]
> 10 µM

###

biological target: Beta-1 adrenergic receptor (Homo sapiens, UniProt P08588); format: functional; also: assay procedure not described here
Sequence (P08588 whole entry): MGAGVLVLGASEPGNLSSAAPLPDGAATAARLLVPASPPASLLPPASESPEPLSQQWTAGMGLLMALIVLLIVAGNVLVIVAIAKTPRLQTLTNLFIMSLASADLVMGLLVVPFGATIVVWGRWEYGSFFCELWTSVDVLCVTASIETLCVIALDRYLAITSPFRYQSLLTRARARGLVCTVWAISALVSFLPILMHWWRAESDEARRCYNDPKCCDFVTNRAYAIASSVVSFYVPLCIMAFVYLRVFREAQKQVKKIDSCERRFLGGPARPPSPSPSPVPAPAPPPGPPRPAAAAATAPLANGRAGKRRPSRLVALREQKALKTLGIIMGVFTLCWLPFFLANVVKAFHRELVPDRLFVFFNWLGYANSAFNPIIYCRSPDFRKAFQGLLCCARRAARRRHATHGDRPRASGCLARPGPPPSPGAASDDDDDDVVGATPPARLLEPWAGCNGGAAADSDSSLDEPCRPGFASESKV
Reported values of AC50 for individual entries

Example cases with answers are listed next.
INSERT INTO results (compound_smiles, obs_value) VALUES
  ('Cc1nnc(SCC2=C(C(=O)O)N3C(=O)[C@@H](NC(=O)Cn4cnnn4)[C@H]3SC2)s1', '> 300 µM'),
  ('Cc1cc(C)nc(NS(=O)(=O)c2ccc(N)cc2)n1', '> 10 µM');

Output AC50 of C=C1c2cccc(O)c2C(=O)C2=C(O)[C@]3(O)C(=O)C(C(N)=O)=C(O)[C@@H](N(C)C)[C@@H]3[C@@H](O)[C@H]12
> 10 µM

Report measured AC50; entry is CCOC(=O)c1ccc(C#Cc2ccc3c(c2)C(C)(C)CCS3)nc1
> 10 µM

###

Documented AC50 across a set of compounds
target: Beta-1 adrenergic receptor (Homo sapiens, UniProt P08588); type: functional; also: assay procedure not described here

INSERT INTO results (compound, obs_value) VALUES
  ('CN(Cc1cnc2nc(N)nc(N)c2n1)c1ccc(C(=O)N[C@@H](CCC(=O)O)C(=O)O)cc1 [METHOTREXATE]', '> 10 µM'),
  ('CC1=C(C(=O)OC(C)C)C(c2cccc([N+](=O)[O-])c2)C(C(=O)OC2CN(C(c3ccccc3)c3ccccc3)C2)=C(N)N1 (stereo not drawn)', '27 µM'),
  ('COc1ccc(CN2CCN(C(c3ccc(F)cc3)c3ccc(F)cc3)CC2)c(OC)c1OC', '> 30 µM');

For C[C@]12C/C(=C/O)C(=O)C[C@@H]1CC[C@@H]1[C@@H]2CC[C@@]2(C)[C@H]1CC[C@]2(C)O , write its AC50.
> 30 µM

Provide one value: measured AC50 of S=P(N1CC1)(N1CC1)N1CC1
> 30 µM

Give me measured AC50, please, for this compound: CC(CN1c2ccccc2Sc2ccccc21)N(C)C (stereo not drawn)
> 10 µM

Please indicate AC50 recorded for C[N+]12CCC(CC1)C(OC(=O)C(O)(c1ccccc1)c1ccccc1)C2 (stereo not drawn)
> 30 µM

Assign AC50 to the following record: CC[C@H](C)C(=O)O[C@H]1C[C@@H](C)C=C2C=C[C@H](C)[C@H](CC[C@@H]3C[C@@H](O)CC(=O)O3)[C@H]21
> 10 µM

Please give the documented AC50 of CN(C)CCCN1c2ccccc2CCc2ccccc21
> 10 µM

// Input: O=C(NCCO[N+](=O)[O-])c1cccnc1 . Output its AC50 only.
> 30 µM

Note down AC50 recorded for CCOC(=O)c1c(CSc2ccccc2)n(C)c2cc(Br)c(O)c(CN(C)C)c12
> 30 µM

Tell me AC50 reported for Cc1ccccc1N1C(=O)c2cc(S(N)(=O)=O)c(Cl)cc2NC1C (stereo not drawn)
> 10 µM

Fill in AC50 for record O=C(c1cc(Cc2n[nH]c(=O)c3ccccc23)ccc1F)N1CCN(C(=O)C2CC2)CC1
> 30 µM

Check the records and state AC50 for O=c1[nH]c2ccccc2n1CCCN1CCN(C(c2ccccc2)c2ccccc2)CC1 [OXATOMIDE]
> 30 µM

Indicate its recorded AC50; the compound in question is COc1cc(C)c(/C=C/C(C)=C/C=C/C(C)=C/C(=O)O)c(C)c1C
> 10 µM

Give a short answer stating reported AC50 for CC(=O)Nc1ccc(CC(=O)O)cc1 .
> 30 µM

Write down AC50 measured for item COc1ccc2cc(CCC(C)=O)ccc2c1
> 10 µM

Consider the compound C[N+]1(C)CCC(=C(c2ccccc2)c2ccccc2)CC1 . State its measured AC50.
> 10 µM

###

Each entry below carries its measured AC50, system: Sodium-dependent noradrenaline transporter (Homo sapiens, UniProt P23975). Also: assay procedure not described here.
Sequence (P23975 whole entry): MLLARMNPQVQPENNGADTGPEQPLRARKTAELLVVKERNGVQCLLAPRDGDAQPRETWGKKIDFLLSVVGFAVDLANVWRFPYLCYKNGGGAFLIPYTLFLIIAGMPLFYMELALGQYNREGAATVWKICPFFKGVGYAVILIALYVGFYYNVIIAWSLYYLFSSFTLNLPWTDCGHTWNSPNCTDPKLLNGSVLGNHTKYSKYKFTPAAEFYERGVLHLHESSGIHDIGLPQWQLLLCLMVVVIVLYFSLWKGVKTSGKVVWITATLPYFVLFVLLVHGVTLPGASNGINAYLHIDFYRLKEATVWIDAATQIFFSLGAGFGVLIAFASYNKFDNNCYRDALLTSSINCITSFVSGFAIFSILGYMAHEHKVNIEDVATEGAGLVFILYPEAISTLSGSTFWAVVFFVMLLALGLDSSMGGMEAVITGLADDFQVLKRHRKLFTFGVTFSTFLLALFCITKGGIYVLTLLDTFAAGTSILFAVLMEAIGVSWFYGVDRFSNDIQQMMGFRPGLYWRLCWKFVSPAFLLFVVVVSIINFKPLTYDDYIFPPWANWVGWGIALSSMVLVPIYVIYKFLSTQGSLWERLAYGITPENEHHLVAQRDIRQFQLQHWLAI

INSERT INTO assay_data (molecule, obs_value) VALUES
  ('CCC(NC(C)C)C(O)c1ccc(O)c2[nH]c(=O)ccc12 (stereo not given)', '> 30 µM'),
  ('CCN1CCCC1CNC(=O)c1cc(S(=O)(=O)CC)ccc1OC (stereo not given) [SULTOPRIDE]', '> 30 µM'),
  ('CO/N=C(\C(=O)N[C@@H]1C(=O)N2C(C(=O)O)=CCS[C@H]12)c1csc(N)n1', '> 30 µM'),
  ('CC(C)[C@H](N)C(=O)OCCOCn1cnc2c(=O)[nH]c(N)nc21', '> 10 µM');

--- query ---
For Sodium-dependent noradrenaline transporter (Homo sapiens, UniProt P23975), give AC50 of the listed molecule: CNC(=C[N+](=O)[O-])NCCSCc1csc(CN(C)C)n1
> 10 µM
